Target: Kdn(a2-3)Gal(b1-4)GlcNAc
Assay: glycan array binding signal (z-score within array); higher = stronger binding
Settings: glycan notation: IUPAC condensed, linker removed
The full list was thinned out, with the strongest signals kept by preference.
reported_property: glycan array binding signal (z-score)
Reply with the value as a number alone.

Known glycan array binding signal (z-score) results, listed for orientation:
binder="CV-IIL (Chromobacterium violaceum) (protein) AQQGVFTLPARINFGVTVLVNSAATQHVEIFVDNEPRAAFSGVGTGDNNLGTKVINSGSGNVRVQITANGRQSDLVSSQLVLANKLNLAVVGSEDGTDMDYNDSIVILNWPLG" measured=-0.502
binder="Epa15 (Candida glabrata) (protein) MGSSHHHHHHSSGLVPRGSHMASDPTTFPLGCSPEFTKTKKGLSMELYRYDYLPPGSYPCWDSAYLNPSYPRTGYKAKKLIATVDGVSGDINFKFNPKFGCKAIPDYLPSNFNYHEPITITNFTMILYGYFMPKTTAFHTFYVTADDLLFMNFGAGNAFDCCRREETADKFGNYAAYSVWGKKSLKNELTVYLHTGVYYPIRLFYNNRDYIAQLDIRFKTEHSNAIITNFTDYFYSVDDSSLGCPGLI" measured=-0.317

Consider now this further binder.
Need glycan array binding signal (z-score) of RfpC (Mycobacterium tuberculosum), O07747 (protein) MHHHHHHSSGRENLYFQGHMASKSAMAAGLVTASMSLSTAVAHAGPSPNWDAVAQCESGGNWAANTGNGKYGGLQFKPATWAAFGGVGNPAAASREQQIAVANRVLAEQGLDAWPTCGAASGLPIALWSKPAQGIKGS , thanks. -0.421
